biological target: HiBit-BRG1 fusion protein in stable HeLa cell line expressing HiBit-BRG1 and LgBit (Homo sapiens, UniProt P51532); construct: expressed in transfected cells; assay: HiBiT-BRG1 cell-based degradation assay (Nano-Glo HiBiT, 24 h); conditions: HeLa HiBit-BRG1/LgBit cells, top dose 30 μM, read-out: BRG1 HiBit Degradation Maximum (%)
Sequence (P51532 whole entry, the tested form may be a part): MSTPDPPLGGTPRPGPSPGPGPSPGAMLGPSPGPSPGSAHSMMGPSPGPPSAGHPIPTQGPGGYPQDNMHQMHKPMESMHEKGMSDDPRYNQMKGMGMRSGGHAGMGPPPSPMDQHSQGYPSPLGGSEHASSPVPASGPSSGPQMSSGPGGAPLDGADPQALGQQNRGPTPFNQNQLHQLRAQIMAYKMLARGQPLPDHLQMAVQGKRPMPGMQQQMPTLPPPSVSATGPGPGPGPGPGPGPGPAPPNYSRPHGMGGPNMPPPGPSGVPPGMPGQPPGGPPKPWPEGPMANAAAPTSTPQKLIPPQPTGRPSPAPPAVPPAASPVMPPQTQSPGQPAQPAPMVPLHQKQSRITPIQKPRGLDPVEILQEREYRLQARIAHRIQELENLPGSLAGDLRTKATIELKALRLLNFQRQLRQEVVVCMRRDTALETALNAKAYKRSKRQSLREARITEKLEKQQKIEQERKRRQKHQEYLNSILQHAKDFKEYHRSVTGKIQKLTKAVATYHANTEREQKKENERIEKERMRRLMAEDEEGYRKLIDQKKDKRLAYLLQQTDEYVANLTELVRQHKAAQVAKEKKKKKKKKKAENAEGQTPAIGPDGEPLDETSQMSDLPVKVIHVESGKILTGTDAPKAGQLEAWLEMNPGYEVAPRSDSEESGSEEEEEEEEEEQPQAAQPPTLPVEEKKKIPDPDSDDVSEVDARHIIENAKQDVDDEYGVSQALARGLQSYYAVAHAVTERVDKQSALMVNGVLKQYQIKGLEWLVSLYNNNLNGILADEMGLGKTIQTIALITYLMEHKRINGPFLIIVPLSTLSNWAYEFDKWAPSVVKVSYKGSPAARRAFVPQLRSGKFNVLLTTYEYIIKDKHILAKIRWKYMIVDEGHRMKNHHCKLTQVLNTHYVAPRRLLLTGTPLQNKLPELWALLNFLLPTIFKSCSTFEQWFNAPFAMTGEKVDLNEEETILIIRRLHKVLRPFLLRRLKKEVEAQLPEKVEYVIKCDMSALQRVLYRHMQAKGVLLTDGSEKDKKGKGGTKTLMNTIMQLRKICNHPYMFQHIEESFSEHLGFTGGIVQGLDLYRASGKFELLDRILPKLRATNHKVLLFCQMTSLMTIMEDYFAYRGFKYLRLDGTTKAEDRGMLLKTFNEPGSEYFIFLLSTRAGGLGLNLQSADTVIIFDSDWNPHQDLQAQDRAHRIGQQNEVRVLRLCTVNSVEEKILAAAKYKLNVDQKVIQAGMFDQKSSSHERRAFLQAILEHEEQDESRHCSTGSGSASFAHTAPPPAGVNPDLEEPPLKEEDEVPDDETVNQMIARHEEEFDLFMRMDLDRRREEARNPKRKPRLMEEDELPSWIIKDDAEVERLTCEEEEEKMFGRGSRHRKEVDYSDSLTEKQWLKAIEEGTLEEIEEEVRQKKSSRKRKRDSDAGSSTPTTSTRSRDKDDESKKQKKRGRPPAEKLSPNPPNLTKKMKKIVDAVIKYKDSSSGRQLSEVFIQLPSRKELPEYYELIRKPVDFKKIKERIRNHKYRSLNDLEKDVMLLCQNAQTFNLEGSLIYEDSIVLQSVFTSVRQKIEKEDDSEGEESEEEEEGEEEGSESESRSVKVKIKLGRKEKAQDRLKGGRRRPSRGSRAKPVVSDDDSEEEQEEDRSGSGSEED
Listed below: Dmax values for each entry.

chemical structure | Dmax
Cc1ncsc1-c1ccc([C@H](C)NC(=O)[C@@H]2C[C@@H](O)CN2C(=O)[C@@H](c2cc(N3CC4(CC(Oc5ccc6cc(-c7ccccc7O)nnc6c5)C4)C3)no2)C(C)C)cc1 | > 50%

Task: Input `Cc1ncsc1-c1ccc([C@H](C)NC(=O)[C@@H]2C[C@@H](O)CN2C(=O)[C@H](c2cc(-c3cnc(N4CCC(c5ccc6nnc(-c7ccccc7O)cc6c5)CC4)nc3)no2)C(C)C)cc1` , output reported Dmax.
Output: < 50%

Task: Supply measured Dmax of `Cc1ncsc1-c1ccc([C@H](C)NC(=O)[C@@H]2C[C@@H](O)CN2C(=O)[C@@H](c2cc(N3CC4(CCN4c4ccc5cc(-c6ccccc6O)nnc5c4)C3)no2)C(C)C)cc1` in your reply.
Output: < 50%

Task: Give the value of Dmax reported for the following: `Cc1ncsc1-c1ccc([C@H](C)NC(=O)[C@@H]2C[C@@H](O)CN2C(=O)[C@@H](c2cc(N3CCC[C@@H](c4ccc5cc(-c6ccccc6O)nnc5c4)C3)no2)C(C)C)cc1`
Output: > 75%

Task: Tell me Dmax reported for `Cc1ncsc1-c1ccc([C@H](C)NC(=O)[C@@H]2C[C@@H](O)CN2C(=O)[C@@H](c2cc(N3CC4(CC(c5cc6nnc(-c7ccccc7O)cc6cc5Cl)C4)C3)no2)C(C)C)cc1`
Output: > 75%

Task: Tell me measured Dmax for `Cc1ncsc1-c1ccc([C@H](C)NC(=O)[C@@H]2C[C@@H](O)CN2C(=O)[C@@H](c2cc(-c3cnc(N4CC[C@H](c5ccc6cc(-c7ccccc7O)nnc6c5)C4)nc3)no2)C(C)C)cc1` please.
Output: > 75%

Task: Give the reported value of Dmax for this record: `Cc1ncsc1-c1ccc([C@H](C)NC(=O)[C@@H]2C[C@@H](O)CN2C(=O)[C@H](C(C)C)n2cc(-c3ccc4nnc(-c5ccccc5O)cc4c3Cl)nn2)cc1`
Output: < 50%

Task: State its Dmax for this molecule: `Cc1ncsc1-c1ccc([C@H](C)NC(=O)[C@@H]2C[C@@H](O)CN2C(=O)[C@@H](c2cc(N3CC4(CN(c5cc(Cl)c6cc(-c7ccccc7O)nnc6c5)C4)C3)no2)C(C)C)cc1`
Output: < 50%

Task: Provide Dmax value for the following molecule: `C#Cc1ccc(CNC(=O)[C@@H]2C[C@@H](O)CN2C(=O)[C@H](C(C)C)n2cc(N3CC4(CN(c5ccc6cc(-c7ccccc7O)nnc6c5)C4)C3)nn2)c(OC)c1`
Output: < 50%

---

target: HiBit-BRG1 fusion protein in stable HeLa cell line expressing HiBit-BRG1 and LgBit (Homo sapiens); construct: expressed in transfected cells; assay: HiBiT-BRG1 cell-based degradation assay (Nano-Glo HiBiT, 24 h); settings: HeLa HiBit-BRG1/LgBit cells, top dose 30 μM, read-out: BRG1 HiBit Degradation Maximum (%)
measurement label: Dmax

compound | Dmax
Cc1ncsc1-c1ccc([C@H](C)NC(=O)[C@@H]2C[C@@H](O)CN2C(=O)[C@H](C(C)C)n2cnc(N3CC4(CN(c5ccc6nnc(-c7ccccc7O)cc6c5)C4)C3)c2)cc1 | < 50%
Cc1ncsc1-c1ccc([C@H](C)NC(=O)[C@@H]2C[C@@H](O)CN2C(=O)C(C(C)C)n2cc(N3C4CCC3CN(c3ccc5cc(-c6ccccc6O)nnc5c3)C4)nn2)cc1 (some centres unmarked) | < 50%
CC(C)C(C(=O)N1C[C@H](O)C[C@H]1C(=O)N[C@@H](C)c1ccccn1)c1cc(N2CC3(CN(c4ccc5cc(-c6ccccc6O)nnc5c4)C3)C2)no1 (some centres unmarked) | < 50%
Cc1ncsc1-c1ccc([C@H](C)NC(=O)[C@@H]2C[C@@H](O)CN2C(=O)[C@@H](c2cc(N3CCC4(CC3)CN(c3ccc5cc(-c6ccccc6O)nnc5c3)C4)no2)C(C)C)cc1 | > 50%

Let's switch to this compound now.
Task: Give the value of Dmax reported for the following: `Cc1ncsc1-c1ccc([C@H](C)NC(=O)[C@@H]2C[C@@H](O)CN2C(=O)[C@@H](c2cc(N3CCCC4(CN(c5ccc6cc(-c7ccccc7O)nnc6c5)C4)C3)no2)C(C)C)cc1`
Output: > 75%

---

target: HiBit-BRG1 fusion protein in stable HeLa cell line expressing HiBit-BRG1 and LgBit (Homo sapiens); construct: expressed in transfected cells; experiment: HiBiT-BRG1 cell-based degradation assay (Nano-Glo HiBiT, 24 h); conditions: HeLa HiBit-BRG1/LgBit cells, top dose 30 μM, read-out: BRG1 HiBit Degradation Maximum (%)
measurement label: Dmax

Answered examples (4):
compound | measurement label | result
CNC(=O)[C@@H]1C[C@@H](O)CN1C(=O)[C@@H](c1cc(N2CC3(CN(c4ccc5nnc(-c6ccccc6O)cc5c4)C3)C2)no1)C(C)C | Dmax | < 50%
Cc1ncsc1-c1ccc([C@H](C)NC(=O)[C@@H]2C[C@@H](O)CN2C(=O)[C@@H](c2cc(-c3ccnc(N4CCC(c5ccc6cc(-c7ccccc7O)nnc6c5)CC4)n3)no2)C(C)C)cc1 | Dmax | > 75%
Cc1ncsc1-c1ccc([C@H](C)NC(=O)[C@@H]2C[C@@H](O)CN2C(=O)C(C(C)C)n2cc(N3CCC(C4CCN(c5ccc6cc(-c7ccccc7O)nnc6c5)CC4)C3)nn2)cc1 (some centres unmarked) | Dmax | > 75%
CC(C)[C@@H](C(=O)N1C[C@H](O)C[C@H]1C(=O)N[C@@H](C)c1ccccc1)c1cc(N2CC3(CN(c4ccc5cc(-c6ccccc6O)nnc5c4)C3)C2)no1 | Dmax | < 50%

Now look at this one.
Task: Respond only with Dmax recorded for `Cc1cc2cc(-c3ccccc3O)nnc2cc1N1CC2(CN(c3cc([C@H](C(=O)N4C[C@H](O)C[C@H]4C(=O)N[C@@H](C)c4ccc(-c5scnc5C)cc4)C(C)C)on3)C2)C1`
Output: > 75%

---

biological target: HiBit-BRG1 fusion protein in stable HeLa cell line expressing HiBit-BRG1 and LgBit (Homo sapiens, UniProt P51532); construct: expressed in transfected cells; assay: HiBiT-BRG1 cell-based degradation assay (Nano-Glo HiBiT, 24 h); details: HeLa HiBit-BRG1/LgBit cells, top dose 30 μM, read-out: BRG1 HiBit Degradation Maximum (%)
Entries annotated with measured Dmax

Task: Give the measured Dmax for `Cc1ncsc1-c1ccc([C@H](C)NC(=O)[C@@H]2C[C@@H](O)CN2C(=O)[C@H](C(C)C)n2cc(N3CCC4(CCN(c5ccc6cc(-c7ccccc7O)nnc6c5)CC4)CC3)nn2)cc1`
Output: > 75%

---

# Lookup of reported Dmax keyed by entry
target: HiBit-BRG1 fusion protein in stable HeLa cell line expressing HiBit-BRG1 and LgBit (Homo sapiens); construct: expressed in transfected cells; assay: HiBiT-BRG1 cell-based degradation assay (Nano-Glo HiBiT, 24 h); conditions: HeLa HiBit-BRG1/LgBit cells, top dose 30 μM, read-out: BRG1 HiBit Degradation Maximum (%)

Consider the following illustrative entries.
compound | measurement label | result
Cc1ncsc1-c1ccc([C@H](C)NC(=O)[C@@H]2C[C@@H](O)CN2C(=O)[C@@H](c2cc(N3CC[C@@]4(CCN(c5ccc6cc(-c7ccccc7O)nnc6c5)C4)C3)no2)C(C)C)cc1 [Compound 99] | Dmax | > 75%
Cc1ncsc1-c1ccc([C@H](C)NC(=O)[C@@H]2C[C@@H](O)CN2C(=O)[C@@H](c2cc(N3CCC4(CC3)CC(c3ccc5cc(-c6cccc(F)c6O)nnc5c3)C4)no2)C(C)C)cc1 [Compound 94] | Dmax | < 50%
Cc1ncsc1-c1ccc([C@@H](C)NC(=O)[C@H]2C[C@H](O)CN2C(=O)[C@H](C(C)C)n2cc(N3CC4(CN(c5ccc6nnc(-c7ccccc7O)cc6c5)C4)C3)cn2)cc1 [Compound 258] | Dmax | > 50%

Task: Provide Dmax value for the following compound: CNC(=O)[C@@H]1C[C@@H](O)CN1C(=O)C(c1cc(N2CC3(CN(c4ccc5cc(-c6ccccc6O)nnc5c4)C3)C2)no1)C(C)C (some centres unmarked) [Compound 114]
Output: < 50%

Task: Answer with reported Dmax of Cc1ncsc1-c1ccc([C@H](C)NC(=O)[C@@H]2C[C@@H](O)CN2C(=O)[C@@H](c2cc(N3CCN(c4ccc5nnc(-c6ccccc6O)cc5c4)CC3)no2)C(C)C)cc1 [Compound 57]
Output: > 75%

---

biological target: HiBiT-BRM fusion protein in stable HeLa cell line (Homo sapiens, UniProt P51531); construct: expressed in transfected cells; assay: HiBiT-BRM cell-based degradation assay (Nano-Glo HiBiT Lytic Detection, 24 h); design: scale not given here; conditions: HeLa HiBiT-BRM cells, read-out: BRM HiBit Degradation IC50
Sequence (P51531 whole entry, the tested form may be a part): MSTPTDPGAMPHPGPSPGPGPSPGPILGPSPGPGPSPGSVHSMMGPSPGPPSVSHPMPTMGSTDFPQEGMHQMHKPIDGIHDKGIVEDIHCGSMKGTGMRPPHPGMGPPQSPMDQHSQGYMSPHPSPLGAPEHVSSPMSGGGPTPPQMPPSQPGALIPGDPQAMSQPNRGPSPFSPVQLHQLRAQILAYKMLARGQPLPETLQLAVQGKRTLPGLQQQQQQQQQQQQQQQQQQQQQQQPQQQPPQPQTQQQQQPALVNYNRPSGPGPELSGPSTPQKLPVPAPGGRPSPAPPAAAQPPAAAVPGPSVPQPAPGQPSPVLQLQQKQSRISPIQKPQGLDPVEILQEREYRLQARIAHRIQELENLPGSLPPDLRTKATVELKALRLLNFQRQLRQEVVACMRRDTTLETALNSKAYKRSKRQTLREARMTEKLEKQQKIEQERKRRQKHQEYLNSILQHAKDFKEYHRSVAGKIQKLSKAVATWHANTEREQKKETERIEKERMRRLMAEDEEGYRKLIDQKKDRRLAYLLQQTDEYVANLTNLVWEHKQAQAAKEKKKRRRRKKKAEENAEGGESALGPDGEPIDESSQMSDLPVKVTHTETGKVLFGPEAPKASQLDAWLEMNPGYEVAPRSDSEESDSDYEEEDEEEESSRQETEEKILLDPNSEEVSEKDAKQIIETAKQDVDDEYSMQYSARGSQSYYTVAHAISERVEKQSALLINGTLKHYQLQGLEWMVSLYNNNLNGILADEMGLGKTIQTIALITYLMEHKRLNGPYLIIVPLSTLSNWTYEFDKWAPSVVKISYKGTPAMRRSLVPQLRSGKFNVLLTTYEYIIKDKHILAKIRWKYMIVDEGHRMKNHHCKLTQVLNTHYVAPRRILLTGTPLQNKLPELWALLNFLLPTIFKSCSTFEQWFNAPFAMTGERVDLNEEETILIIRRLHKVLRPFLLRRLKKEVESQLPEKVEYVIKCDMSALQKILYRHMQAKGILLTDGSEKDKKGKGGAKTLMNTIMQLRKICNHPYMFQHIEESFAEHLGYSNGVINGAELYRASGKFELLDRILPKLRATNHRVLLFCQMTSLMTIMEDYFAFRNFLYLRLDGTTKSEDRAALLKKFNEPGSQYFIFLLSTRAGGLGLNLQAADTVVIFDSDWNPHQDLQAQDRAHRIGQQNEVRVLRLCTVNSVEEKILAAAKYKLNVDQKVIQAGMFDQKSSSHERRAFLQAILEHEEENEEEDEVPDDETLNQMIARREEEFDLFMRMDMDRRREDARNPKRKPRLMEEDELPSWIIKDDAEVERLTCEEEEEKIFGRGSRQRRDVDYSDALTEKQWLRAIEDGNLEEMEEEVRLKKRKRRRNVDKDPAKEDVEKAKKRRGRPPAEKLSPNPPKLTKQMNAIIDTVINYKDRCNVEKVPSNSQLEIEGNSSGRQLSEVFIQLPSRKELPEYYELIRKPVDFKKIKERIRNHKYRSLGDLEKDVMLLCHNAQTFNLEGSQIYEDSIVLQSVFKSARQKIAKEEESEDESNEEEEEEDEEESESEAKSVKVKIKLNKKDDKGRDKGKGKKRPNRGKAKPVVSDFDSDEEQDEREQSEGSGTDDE
Documented DC50 across a set of compounds

compound | result
Cc1ncsc1-c1ccc([C@H](C)NC(=O)[C@@H]2C[C@@H](O)CN2C(=O)C(C(C)C)n2cc(N3CCC4(CC3)CN(c3ccc5cc(-c6ccccc6O)nnc5c3)C4)nn2)cc1 (some centres unmarked) | < 0.01 µM
Cc1ncsc1-c1ccc([C@H](C)NC(=O)[C@@H]2C[C@@H](O)CN2C(=O)[C@H](C(C)C)n2cc(C3CC4(C3)CN(c3ccc5cc(-c6ccccc6O)nnc5c3)C4)nn2)cc1 | < 0.01 µM
Cc1ncsc1-c1ccc([C@H](C)NC(=O)[C@@H]2C[C@@H](O)CN2C(=O)[C@@H](c2cc(N3CC4(CC(c5cc6nnc(-c7ccccc7O)cc6cc5C5CC5)C4)C3)no2)C(C)C)cc1 | < 0.01 µM
Cc1ncsc1-c1ccc([C@H](C)NC(=O)[C@@H]2C[C@@H](O)CN2C(=O)C(c2cc(N3C[C@@H]4CN(c5ccc6cc(-c7ccccc7O)nnc6c5)C[C@H]4C3)no2)C(C)C)cc1 (some centres unmarked) | > 0.01 µM

Shifting focus to the compound that follows.
Task: Tell me DC50 of `C#Cc1cc2cc(-c3ccccc3O)nnc2cc1N1CC2(CN(c3cc([C@H](C(=O)N4C[C@H](O)C[C@H]4C(=O)N[C@@H](C)c4ccc(-c5scnc5C)cc4)C(C)C)on3)C2)C1` when tested on HiBiT-BRM fusion protein in stable HeLa cell line (Homo sapiens, UniProt P51531).
Output: < 0.01 µM
